Where a name gives a salt, the structure may show the parent alone.
Consider molecules characterized by their IC50 with ROCK2 (Homo sapiens, UniProt O75116).
Sequence (O75116 whole entry, species assumed): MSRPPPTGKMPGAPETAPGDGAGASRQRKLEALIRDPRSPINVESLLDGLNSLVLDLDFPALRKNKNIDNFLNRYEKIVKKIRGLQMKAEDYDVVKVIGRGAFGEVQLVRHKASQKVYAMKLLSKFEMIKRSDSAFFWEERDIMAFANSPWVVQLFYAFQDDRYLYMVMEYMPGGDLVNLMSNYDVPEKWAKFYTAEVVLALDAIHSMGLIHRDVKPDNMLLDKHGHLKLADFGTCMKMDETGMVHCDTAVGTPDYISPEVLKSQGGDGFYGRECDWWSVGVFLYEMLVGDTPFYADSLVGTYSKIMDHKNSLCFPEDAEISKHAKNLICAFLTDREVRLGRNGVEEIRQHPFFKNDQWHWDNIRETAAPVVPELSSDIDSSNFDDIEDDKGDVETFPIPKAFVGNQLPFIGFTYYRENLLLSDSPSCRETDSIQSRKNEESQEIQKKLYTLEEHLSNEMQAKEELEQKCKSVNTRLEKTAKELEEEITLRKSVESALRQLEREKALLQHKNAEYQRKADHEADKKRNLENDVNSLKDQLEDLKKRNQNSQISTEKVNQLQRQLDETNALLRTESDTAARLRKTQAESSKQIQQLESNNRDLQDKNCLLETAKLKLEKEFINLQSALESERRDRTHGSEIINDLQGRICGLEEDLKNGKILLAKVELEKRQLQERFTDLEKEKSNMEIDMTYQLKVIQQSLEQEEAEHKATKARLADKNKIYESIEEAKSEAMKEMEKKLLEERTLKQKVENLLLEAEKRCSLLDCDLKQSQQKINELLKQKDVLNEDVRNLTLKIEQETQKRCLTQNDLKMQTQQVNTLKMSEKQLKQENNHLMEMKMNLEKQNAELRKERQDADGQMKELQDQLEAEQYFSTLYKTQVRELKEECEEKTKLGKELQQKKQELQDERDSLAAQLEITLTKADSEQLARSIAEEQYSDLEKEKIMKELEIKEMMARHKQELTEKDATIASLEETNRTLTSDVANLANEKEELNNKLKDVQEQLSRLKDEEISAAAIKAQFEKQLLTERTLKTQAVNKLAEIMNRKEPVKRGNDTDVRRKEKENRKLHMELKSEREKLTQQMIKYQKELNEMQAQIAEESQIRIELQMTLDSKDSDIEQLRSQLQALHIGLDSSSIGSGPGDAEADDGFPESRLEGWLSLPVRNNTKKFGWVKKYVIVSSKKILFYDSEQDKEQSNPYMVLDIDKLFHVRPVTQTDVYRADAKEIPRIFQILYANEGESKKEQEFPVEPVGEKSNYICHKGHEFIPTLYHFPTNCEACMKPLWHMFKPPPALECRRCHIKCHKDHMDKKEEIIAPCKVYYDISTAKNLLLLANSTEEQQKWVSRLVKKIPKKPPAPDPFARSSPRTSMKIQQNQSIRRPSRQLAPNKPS

Below, each entry is followed by its recorded IC50 result.
COc1cc(CN2CCN(c3ccc(-c4cn[nH]c4)cc3)C2=O)ccc1F ... 2.1 to 20 nM
CCc1cc(N2CCN(Cc3ccc(F)c(OC)c3)C2=O)ccc1-c1cn[nH]c1 ... 2.1 to 20 nM
CCc1cc(N2CCN(CCc3cccc(OC)c3)C2=O)ccc1-c1cn[nH]c1 [Example 27, TFA] ... 200 to 2000 nM
COc1cc(Cn2ccn(-c3ccc(-c4cn[nH]c4)cn3)c2=O)ccc1F ... 20.1 to 200 nM

IC50 for ROCK2 (Homo sapiens, UniProt O75116) with input "COc1nc(-n2ccn(Cc3cccc(F)c3C)c2=O)ccc1-c1cn[nH]c1" equals < 2 nM

IC50 for ROCK2 (Homo sapiens, UniProt O75116) with input "COc1cccc(Cn2ccn(-c3ccc(-c4cn[nH]c4)cn3)c2=O)c1" equals 2.1 to 20 nM

IC50 for ROCK2 (Homo sapiens, UniProt O75116) with input "COc1cc(F)ccc1Cn1ccn(-c2ccc(-c3cn[nH]c3)cc2)c1=O" equals 200 to 2000 nM
